Cited source for all entries: PubChem BioAssay AID803

Collected activation values appear next to each entry.
# study target: Galanin receptor type 2 (Homo sapiens) (UniProt O43603)
# Sequence (O43603 whole entry, looked up): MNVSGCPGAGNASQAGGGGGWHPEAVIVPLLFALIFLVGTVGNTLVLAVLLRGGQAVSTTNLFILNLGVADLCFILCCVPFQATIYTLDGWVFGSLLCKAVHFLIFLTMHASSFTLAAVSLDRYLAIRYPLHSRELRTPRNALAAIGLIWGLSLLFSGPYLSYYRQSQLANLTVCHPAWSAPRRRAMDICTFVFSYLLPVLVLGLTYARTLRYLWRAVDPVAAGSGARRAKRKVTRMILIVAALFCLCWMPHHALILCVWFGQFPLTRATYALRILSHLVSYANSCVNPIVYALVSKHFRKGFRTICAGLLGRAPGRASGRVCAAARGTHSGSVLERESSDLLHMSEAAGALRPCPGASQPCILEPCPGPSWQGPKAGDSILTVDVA
# test description: GALR2 receptor agonists, primary screen, cell-based (AID 803);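 further: 0% = vehicle buffer wells and 100% = reference agonist at full effect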
# condition notes: GALR2-expressing cells, agonist activation read-out; hits give high values; concentration not given here
The campaign covered roughly 140,000 compounds. About 680 (0.49%) were called active. This excerpt belongs to a sample that is enriched for actives.
measurement label: activation (%)

>>> print(df.to_string())
                                   compound  readout_unit  measured_number
0  Cc1cccc(N2C(=O)NC(=O)/C(=C\c3cnn(-c4ccccc4)c3)C2=O)c1             %             34.2
1  CN1CCN(C(=S)SCC(=O)Nc2ccc(Cl)cc2C(=O)c2ccccc2)CC1             %            -0.06
2  CCOP(=O)(OCC)C(NC(=O)c1ccc(C)cc1)C(Cl)(Cl)Cl (centres undefined)             %            -0.73
3  Cc1ccc(-n2c(-c3ccc([N+](=O)[O-])cc3)nc3ccccc3c2=O)cc1             %            -0.79
